B1: SERPINB5 (parent)
chain: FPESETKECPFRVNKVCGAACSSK

# Variants of: B1
# assay-protocol: protein stability index of a GFP-peptide fusion (GPS, HEK-293T) (PSI 1-6); higher = more stable;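 further: lentivirally expressed fusions sorted by FACS into six bins by GFP to DsRed ratio, PSI derived from sequencing read proportions per bin multiplied by bin number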
# cond: c terminus: a fixed tail appended
quantity-name: protein stability index

{"columns": ["mutation-key", "recorded-number"],
 "data": [
  ["K15M", 2.38],
  ["A19E", 2.5],
  ["E3Y", 1.53],
  ["P2V", 2.13],
  ["A20D", 2.69],
  ["S4L", 2.35],
  ["R12H", 3.83],
  ["R12D", 4.86],
  ["E8I", 2.13],
  ["A20L", 2.79],
  ["K7E", 2.78],
  ["N14G", 2.02],
  ["A20V", 2.67],
  ["R12A", 3.76],
  ["E3C", 2.4],
  ["P2Y", 3.67]
]}
